# targetEntity: human enzyme NAMPT (full length) (Homo sapiens, UniProt P43490)
# Construct: human enzyme NAMPT (full length)
# Sequence (P43490 whole entry): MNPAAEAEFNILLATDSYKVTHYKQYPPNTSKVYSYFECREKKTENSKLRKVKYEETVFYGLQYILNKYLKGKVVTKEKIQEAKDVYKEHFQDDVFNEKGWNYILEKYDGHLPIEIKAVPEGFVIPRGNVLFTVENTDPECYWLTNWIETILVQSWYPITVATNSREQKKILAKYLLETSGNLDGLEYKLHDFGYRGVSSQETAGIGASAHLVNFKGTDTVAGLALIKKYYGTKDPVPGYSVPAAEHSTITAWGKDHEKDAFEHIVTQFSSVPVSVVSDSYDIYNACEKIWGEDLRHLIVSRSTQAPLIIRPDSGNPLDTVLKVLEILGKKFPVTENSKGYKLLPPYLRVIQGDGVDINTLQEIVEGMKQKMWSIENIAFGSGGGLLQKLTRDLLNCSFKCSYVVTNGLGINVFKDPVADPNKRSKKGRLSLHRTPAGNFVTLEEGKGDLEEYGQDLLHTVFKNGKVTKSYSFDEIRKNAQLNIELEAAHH
# testDetails: NMN fluorescence biochemical assay (stimulation of NMN synthesis by NAMPT)
# conditionSummary: fold change of maximal activation compared to DMSO
reportedEndpoint: Enzymatic Emax

[
  {
    "compound": "O=C1c2ccccc2C(Cc2ccc(Cl)cn2)N1Cc1ccc2[nH]c(=O)oc2c1 (stereo not shown)",
    "Enzymatic Emax": "B (3≥B>2)"
  },
  {
    "compound": "Cn1ncc(Cl)c1CC1c2cc(OC(F)F)ccc2C(=O)N1CC1CC2(CNC(=O)O2)C1 (stereo not shown)",
    "Enzymatic Emax": "B (3≥B>2)"
  },
  {
    "compound": "N#Cc1nccc(Cl)c1CC1c2cc(C3COC3)ccc2C(=O)N1Cc1ccc2[nH]c(=O)oc2c1 (stereo not shown)",
    "Enzymatic Emax": "B (3≥B>2)"
  },
  {
    "compound": "O=C1c2ccccc2C(Cc2ncccc2Br)N1C/C=C/c1cn[nH]c1 (stereo not shown)",
    "Enzymatic Emax": "B (3≥B>2)"
  },
  {
    "compound": "Cc1ccnc(Br)c1CC1c2ccccc2C(=O)N1C/C=C/c1c[nH]nn1 (stereo not shown)",
    "Enzymatic Emax": "B (3≥B>2)"
  },
  {
    "compound": "O=C1c2ccccc2C(Cc2cccnc2F)N1Cc1ccc2[nH]c(=O)oc2c1 (stereo not shown)",
    "Enzymatic Emax": "B (3≥B>2)"
  },
  {
    "compound": "O=C1c2ccccc2C(Cc2ncccc2Br)N1Cc1ccc2[nH]ncc2c1 (stereo not shown)",
    "Enzymatic Emax": "B (3≥B>2)"
  },
  {
    "compound": "COc1ccc(CN2C(=O)c3ccccc3C2Cc2c(C)ncnc2C#N)cn1 (stereo not shown)",
    "Enzymatic Emax": "B (3≥B>2)"
  },
  {
    "compound": "O=C1c2ccccc2C(Cc2ncccc2Br)N1Cc1ccc2[nH]c(=S)oc2c1 (stereo not shown)",
    "Enzymatic Emax": "B (3≥B>2)"
  },
  {
    "compound": "Cn1ncc(Cl)c1CC1c2ccccc2C(=O)N1C/C(F)=C/c1nn[nH]c1F (stereo not shown)",
    "Enzymatic Emax": "A (A>3)"
  }
]

Task: // Enzymatic Emax lookup, key: O=C1CC2(CN1)CC(CN1C(=O)c3ccccc3C1Cc1ncccc1Br)C2 (stereo not shown)
Output: C (2≥C)

Task: Consider the compound Cn1ncc(Cl)c1CC1c2ccccc2C(C)(C)N1CC1CC(C(N)=O)C1 (stereo not shown) and give its measured Enzymatic Emax.
Output: C (2≥C)

Task: # lookup: Enzymatic Emax of CC1c2ccccc2C(=O)N1Cc1cc(F)c2[nH]nnc2c1 (stereo not shown)
Output: C (2≥C)

Task: What value of Enzymatic Emax has been reported for the following compound? N#Cc1cccnc1CC1c2ccccc2C(=O)N1Cc1ccc2[nH]c(=O)oc2c1 (stereo not shown)
Output: A (A>3)

Task: Entry under review: Cc1noc(Cl)c1CC1c2ccccc2C(=O)N1Cc1ccc2[nH]nnc2c1 (stereo not shown) . Reported Enzymatic Emax?
Output: A (A>3)

Task: What does the data say about its Enzymatic Emax? Entry: N#Cc1ccnc(C#N)c1CC1c2ccccc2C(=O)N1CC1CC2(CNC(=O)O2)C1 (stereo not shown)
Output: B (3≥B>2)

Task: // returns reported Enzymatic Emax for input Cn1ncc(Cl)c1CC1c2ccccc2C(=O)N1CC#Cc1c[nH]nc1Cl (stereo not shown)
Output: B (3≥B>2)

Task: Need Enzymatic Emax of N#Cc1nccc(Cl)c1CC1c2cccc(F)c2C(=O)N1Cc1ccc2[nH]c(=O)oc2c1 (stereo not shown) , thanks.
Output: B (3≥B>2)

Task: Could you share which Enzymatic Emax value was measured for Cn1nc(C2CNC2)c(Cl)c1CC1c2ccccc2C(=O)N1Cc1ccc2[nH]nnc2c1 (stereo not shown) ?
Output: B (3≥B>2)

Task: Form field: reported Enzymatic Emax of Cn1ncc(Cl)c1CC1c2ccccc2C(=O)N1Cc1ccc2ocnc2c1 (stereo not shown)
Output: C (2≥C)

Task: Item under review: Cn1ncc(Cl)c1CC1c2cc(OC(F)F)ccc2C(=O)N1Cc1ccc2[nH]nnc2c1 (stereo not shown) . Reported Enzymatic Emax?
Output: B (3≥B>2)

Task: Need Enzymatic Emax of COc1ncc(CN2C(=O)c3ccccc3C2Cc2c(Cl)cnn2C)cc1F (stereo not shown) , thanks.
Output: C (2≥C)

Task: Look up Enzymatic Emax: O=C1NCC2(CC(CN3C(=O)c4ccccc4C3Cc3c(Cl)nc4sccn34)C2)O1 (stereo not shown)
Output: B (3≥B>2)

Task: State the recorded Enzymatic Emax for this entry: CN1CC(c2ccc3c(c2)C(Cc2c(Cl)cnn2C)N(Cc2ccc4[nH]nnc4c2)C3=O)C1 (stereo not shown)
Output: B (3≥B>2)

Task: Look up Enzymatic Emax: O=C1c2ccccc2C(Cc2cnccc2Cl)N1Cc1ccc2[nH]c(=O)oc2c1 (stereo not shown)
Output: B (3≥B>2)

Task: What does the data say about its Enzymatic Emax? Entry: COc1c(F)cc(CN2C(=O)c3ccccc3C2Cc2c(Cl)cnn2C)cc1F (stereo not shown)
Output: B (3≥B>2)

Task: Quick one: Enzymatic Emax of O=C1c2ccccc2C(Cc2ncccc2Br)N1Cc1ccc2[nH]nnc2c1 (stereo not shown) ?
Output: A (A>3)

Task: Fill blank: measured Enzymatic Emax of the compound Cn1ncc(Cl)c1CC1c2ccccc2C(=O)N1Cc1cnc(N)s1 (stereo not shown) is ____.
Output: B (3≥B>2)

Task: Given the entry Cn1ncc(Cl)c1CC1c2ccccc2CCN1CC1CC2(CNC(=O)O2)C1 (stereo not shown) , report its measured Enzymatic Emax.
Output: B (3≥B>2)

Task: Data request, read-out Enzymatic Emax, for Cc1ccnc(CC2c3ccccc3C(=O)N2Cc2ccc3[nH]c(=O)oc3c2)c1 (stereo not shown)
Output: A (A>3)

Task: Fill in: Enzymatic Emax of Cc1ccc(CC2c3ccccc3C(=O)N2Cc2ccc3[nH]c(=O)oc3c2)nc1 (stereo not shown) is ___
Output: A (A>3)

Task: I would be grateful if you could share the reported Enzymatic Emax for Cc1ccc2c(c1)C(=O)N(Cc1ccc3[nH]c(=O)oc3c1)C2=O .
Output: C (2≥C)

Task: Give the measured Enzymatic Emax of Cn1ncc(Cl)c1C[C@@H]1c2ccccc2C(=O)N1C[C@H]1C[C@]2(CNC(=O)O2)C1 .
Output: C (2≥C)

Task: Requested read-out: Enzymatic Emax. Entry: O=c1ccc2ccccc2n1Cc1ccc(O)cc1 [Compound 5, 1-(4-hydroxybenzyl)quinolin-2(1H)-one]
Output: A (A>3)
